Tested on: NCI/ADR-RES
Experiment: NCI tumour cell line growth inhibition, 48 h
The source made the active and inactive calls. No stated cut-off is given here; in the data, active = GI50 up to about 1.1 µM and inactive = higher.
// GI50 lookup, one value per entry

For orientation, consider the following solved cases.
> print(dat)
                                   compound  reportedmetric          measurement
1  Cc1c(C)n(-c2ccccc2)c2nc([S+](C)[O-])nc([S+](C)[O-])c12 (stereo unspecified)            GI50   22.9 µM (inactive)
2  CC1=NN(c2ccccc2)C(=O)C1/N=N/c1ccc(S(N)(=O)=O)cc1 (stereo unspecified)            GI50  > 100 µM (inactive)
3            Cc1[nH]c2c(C)ccc(C)c2c1CC(=O)O            GI50   54.6 µM (inactive)
4  Cc1ccc(S(=O)(=O)OC2CC(C(C)(C)C)CCC2c2ccccc2)cc1 (stereo unspecified)            GI50  > 100 µM (inactive)

[Q] Given the compound CCOC(=O)[C@@]1(C(C)=O)CC(C)=C(C)C[S@@+]1[O-] , what is its reported GI50?
[A] > 100 µM (inactive)

[Q] What about this compound? CNC(=S)N/N=C/c1ccc([N+](=O)[O-])s1
[A] > 10 µM (inactive)
